PROTOCOL: Inhibition of human constitutive proteasome subunit beta type-2 in human erythrocytes using fluorogenic substrate by […]
Recorded IC50 for the following compounds

CCC(C)/C=C(\C)c1cc2c(cn1)C(=O)c1c(cc(OC)c(O)c1O)C2=O (stereo not drawn)	> 50 µM
CCC(C)/C=C(\C)C1=Cc2cc3c(c(O)c2CO1)C(=O)C(O)(CC(C)=O)C(OC)=C3 (stereo not drawn)	> 50 µM

Okay, now this compound:
The reported value for CCC(C)/C=C(\C)c1cc2c(cn1)C(=O)C1=C(N)C(=O)C(OC)=CC1=C2 (stereo not drawn) in terms of IC50 is 42 µM
